Here's what we have: pIC50 numbers for Human immunodeficiency virus type 1 reverse transcriptase (Human immunodeficiency virus 1).
// pIC50: -log10(molar conc.)

{"molecule": "N#Cc1ccccc1[S+]([O-])c1cccc(N)c1C#N (configuration not stated)", "test-readout": "pIC50", "reported-measurement": 5.01}

Moving on to another molecule below.
Measured pIC50 for this entry `N#Cc1c(N)cccc1S(=O)(=O)c1ccc2ccccc2c1` on Human immunodeficiency virus type 1 reverse transcriptase (Human immunodeficiency virus 1): 7.53
